# Lookup of reported % Internalization (SNB-19 cells) keyed by entry
target: Ten-M2 endogenously expressed on human cancer cell lines (SNB-19 and others) (human, UniProt Q9NT68 1-2774); test: cell-based or functional assay

[
  {
    "binder": "Ten-M2-213 (antibody, IgG2, V domains shown, Fully human mAb from IgG2 kappa XenoMouse (B cell clone); also called Mab 213) VH: QVQLVQSGAEVKKPGASVKVSCKASGYTFTNYDINWVRQATGQGLEWMGWMNPNSGNTGYAQKFQGRVTMTRNTSIRTAYMELSSLRSEDTAVYYCARGPGGSFYYYYGMDVWGQGTTVTVSS VL: DIQMTQSPSSLSASVGDRVTITCRASQSISSYLNWYQQKPGKAPNLLIYTASSLQSGVPSRFSGSGSGTVFTLTISSLQPEDFATYYCQQSSSTPFTFGPGTKVDFK",
    "% Internalization (SNB-19 cells) [%]": 46
  },
  {
    "binder": "Ten-M2-199 (antibody, IgG2, V domains shown, Fully human mAb from IgG2 kappa XenoMouse (B cell clone); also called Mab199) VH: QVQLVQSGAEVKKPGASVKVSCKASGYTFTNYDINWLRQASGQGLEWMGWMNPDSGNTGYAQRFQGRVTMTRDTSISTAYMELSSLRSEDTAVYYCARYISSLHYYYYGMDVWGQGTTVTVSS VL: DIQMTQSPSSLSASVGDRVTITCRASQSINSYLNWYQQKPGKAPRLLIYAASNLQSGVPSRFSGSGSGTDFTLTISSLQPEDFSTYYCQQSHNTPLTFGGGTKVEIK",
    "% Internalization (SNB-19 cells) [%]": 46
  }
]
